# TEST_SYSTEM: Human recombinant MMP-13 (Homo sapiens)
# Construct: made in house; host or cells: baculovirus / insect cells
# PROCEDURE_TEXT: In vitro MMP inhibition, IC50 determination (fluorogenic substrate I)
# Assay type: biochemical
# TEST_SETTINGS: value outside parentheses
MEASUREMENT_LABEL: IC50 (nM)

These recorded examples may help you get a feel for the data.
# COMPOUND, MEASURED_NUMBER
measured = [
    ("O=C(NO)C1(S(=O)(=O)c2ccc(OCCCn3nnc(-c4ccc(C(F)(F)F)cc4)n3)cc2)CCN(CC(F)(F)F)CC1 [Example 657]", 6030),
    ("O=C(NCCOc1ccc(S(=O)(=O)C2(C(=O)NO)CCOCC2)cc1)c1cc2ccccc2[nH]1 [Example 599]", 0.1),
    ("CCN1CCC(C(=O)NO)(S(=O)(=O)c2ccc(OCCCSc3nc4ccccc4o3)cc2)CC1 [Example 525]", 1.5),
    ("O=C(NO)C1(S(=O)(=O)c2ccc(OCCCc3cc(C(F)(F)F)cc(C(F)(F)F)c3)cc2)CCOCC1 [Example 573]", 75.1),
    ("O=C(COc1ccc(S(=O)(=O)C2(C(=O)NO)CCOCC2)cc1)Nc1cccc(-c2ccccc2)c1 [Example 642]", 36.9),
    ("CC(=O)Nc1cccc(OCCOc2ccc(S(=O)(=O)C3(C(=O)NO)CCOCC3)cc2)c1 [Example 670]", 14),
    ("O=C(CCCOc1ccc(S(=O)(=O)C2(C(=O)NO)CCOCC2)cc1)Nc1cccc(-c2ccccc2)c1 [Example 571]", 1.6),
    ("O=C(NCCSc1ccc(S(=O)(=O)C2(C(=O)NO)CCOCC2)cc1)c1nc2ccccc2o1 [Example 576]", 0.3),
]

I = O=C(NCCSc1ccc(S(=O)(=O)C2(C(=O)NO)CCOCC2)cc1)c1cc2ccccc2[nH]1 [Example 593]
II = O=C(NO)C1(S(=O)(=O)c2ccc(OCCOc3cccc(F)c3)cc2)CCOCC1 [Example 669]
# query: argmin of IC50 over I and II Your answer should be the label attached to the chosen record.
II
(II: 7.24 nM, I: 15.6 nM)

A = COCCN1CCC(C(=O)NO)(S(=O)(=O)c2ccc(OCCCSc3nc4ccccc4s3)cc2)CC1 [Example 615]
B = O=C(NO)C1(S(=O)(=O)c2ccc(OCCSc3nc4ccc(Cl)cc4o3)cc2)CCOCC1 [Example 502]
Which shows the larger IC50 value: A or B ? Your answer should be the label attached to the chosen record.
B
(B: 1 nM, A: 0.4 nM)

A = O=C(CCCOc1ccc(S(=O)(=O)C2(C(=O)NO)CCOCC2)cc1)N1CC[C@@H](c2ccccc2)[C@@H](O)C1 [Example 652]
B = O=C(NO)C1(S(=O)(=O)c2ccc(OCCOCc3cccc(OC(F)(F)F)c3)cc2)CCOCC1 [Example 660]
Which shows the larger IC50 value: A or B ? Your answer should be the label attached to the chosen record.
B

###

# TEST_SYSTEM: Human recombinant MMP-14 (Homo sapiens, UniProt P50281)
# Construct: The catalytic domain enzyme was expressed in E. coli inclusion bodies, solubilized in urea; made in house
# PROCEDURE_TEXT: In vitro MMP inhibition, IC50 determination (fluorogenic substrate I)
# Format: biochemical
# TEST_SETTINGS: value outside parentheses (Ki in parenthesis)
MEASUREMENT_LABEL: IC50 (nM)

# STRUCTURE_SMILES, IC50, nM
records = [
    ("CCOc1ccc2nc(SCCOc3ccc(S(=O)(=O)C4(C(=O)NO)CCOCC4)cc3)sc2c1", 592),
]

A = O=C(NO)C1(S(=O)(=O)c2ccc(OCCCCCN3CCc4ccccc4C3)cc2)CCOCC1
B = O=C(NO)C1(S(=O)(=O)c2ccc(OCCCSCc3cccc(OC(F)(F)F)c3)cc2)CCOCC1
# query: argmin of IC50 over A and B Your answer should be the label attached to the chosen record.
A
(A: 962 nM, B: 2290 nM)

###

# TEST_SYSTEM: Human recombinant MMP-13 (Homo sapiens)
# Construct: made in house; host or cells: baculovirus / insect cells
# PROCEDURE_TEXT: In vitro MMP inhibition, IC50 determination (fluorogenic substrate I)
# Assay type: biochemical
# TEST_SETTINGS: value outside parenthesis
MEASUREMENT_LABEL: IC50 (nM)

# COMPOUND, MEASUREMENT_LABEL, RESULT_UNIT, MEASURED_NUMBER
data = [
    ("CC(C)c1cccc(NC(=O)CCCOc2ccc(S(=O)(=O)C3(C(=O)NO)CCOCC3)cc2)c1", "IC50", "nM", 0.5),
    ("CC(C)c1ccc(N2CCN(CCCOc3ccc(S(=O)(=O)C4(C(=O)NO)CCOCC4)cc3)C2=O)cc1", "IC50", "nM", 13.5),
    ("Cc1cccc(-c2nnc(CCCOc3ccc(S(=O)(=O)C4(C(=O)NO)CCOCC4)cc3)o2)c1", "IC50", "nM", 1.7),
    ("CCOc1ccc(-c2nnn(CCCOc3ccc(S(=O)(=O)C4(C(=O)NO)CCN(CCOC)CC4)cc3)n2)cc1", "IC50", "nM", 1),
    ("CCOc1ccc(-c2noc(CCCOc3ccc(S(=O)(=O)C4(C(=O)NO)CCN(C5CC5)CC4)cc3)n2)cc1", "IC50", "nM", 2.5),
]

A = COc1cccc(-c2nnc(CCCOc3ccc(S(=O)(=O)C4(C(=O)NO)CCOCC4)cc3)o2)c1
B = O=C(NO)C1(S(=O)(=O)c2ccc(OCCCc3cccc(Br)c3)cc2)CCOCC1
C = O=C(NO)C1(S(=O)(=O)c2ccc(OCCCc3nc(-c4ccc5c(c4)OCO5)no3)cc2)CCOCC1
Your job: order these 3 records by IC50, ascending. // format: requested-order list of labels
C, B, A

a = Cc1ccc(-c2noc(CCCOc3ccc(S(=O)(=O)C4(C(=O)NO)CCOCC4)cc3)n2)c(F)c1
b = Cc1ccc(-c2nnc(CCCOc3ccc(S(=O)(=O)C4(C(=O)NO)CCOCC4)cc3)o2)c(C)c1
Which shows the larger IC50 value: a or b ? Your answer should be the label attached to the chosen record.
a

A = CC(C)(C)c1ccc(-c2nnc(CCCOc3ccc(S(=O)(=O)C4(C(=O)NO)CCOCC4)cc3)o2)cc1
B = O=C(NCCCOc1ccc(S(=O)(=O)C2(C(=O)NO)CCOCC2)cc1)c1cc2ccccc2o1
C = COCCN1CCC(C(=O)NO)(S(=O)(=O)c2ccc(OCCCn3nnc(-c4ccc(SC)cc4)n3)cc2)CC1
D = CCOc1ccc2nc(SCCCOc3ccc(S(=O)(=O)C4(C(=O)NO)CCOCC4)cc3)sc2c1
E = O=C(CCCOc1ccc(S(=O)(=O)C2(C(=O)NO)CCN(C3CC3)CC2)cc1)C1CCC(O)(c2ccc(Cl)cc2)CC1 (stereo not drawn)
Your job: order these 5 records by IC50, ascending. // format: requested-order list of labels
B, C, D, E, A

a = COCCN1CCC(C(=O)NO)(S(=O)(=O)c2ccc(OCCCc3nc(-c4ccc(Br)cc4C)no3)cc2)CC1
b = COc1ccc(C(=O)CCCCOc2ccc(S(=O)(=O)C3(C(=O)NO)CCN(C4CC4)CC3)cc2)cc1
# query: argmin of IC50 over a and b Your answer should be the label attached to the chosen record.
b

A = Cc1ccccc1N1CC(=O)N(CCCOc2ccc(S(=O)(=O)C3(C(=O)NO)CCOCC3)cc2)C1=O
B = C[C@@H]1C(=O)N(CCCOc2ccc(S(=O)(=O)C3(C(=O)NO)CCOCC3)cc2)C(=O)N1c1ccccc1
# query: argmin of IC50 over A and B Your answer should be the label attached to the chosen record.
B
(B: 2 nM, A: 4.3 nM)

1 = Cc1ccc(-c2cccc(CCOc3ccc(S(=O)(=O)C4(C(=O)NO)CCOCC4)cc3)c2)cc1
2 = O=C(NO)C1(S(=O)(=O)c2ccc(OCCCc3ccc(-c4ccccc4)cc3)cc2)CCOCC1
# query: argmin of IC50 over 1 and 2 Your answer should be the label attached to the chosen record.
1
(1: 5.5 nM, 2: 8.1 nM)

I = Cc1cc(C)nc(SCCOc2ccc(S(=O)(=O)C3(C(=O)NO)CCOCC3)cc2)n1
II = O=C(NO)C1(S(=O)(=O)c2ccc(OCCCc3nc(-c4cc(F)ccc4F)no3)cc2)CCOCC1
III = CC(C)C(=O)c1cccc(CCCOc2ccc(S(=O)(=O)C3(C(=O)NO)CCOCC3)cc2)c1
Output the entries ranked by IC50 from maximum down to minimum. // format: requested-order list of labels
I, III, II

I = CC[C@@H]1C(=O)N(CCCOc2ccc(S(=O)(=O)C3(C(=O)NO)CCOCC3)cc2)C(=O)N1c1ccccc1
II = Cc1cc(-c2cccc(CCCOc3ccc(S(=O)(=O)C4(C(=O)NO)CCOCC4)cc3)c2)ccc1F
III = O=C1N(CCCOc2ccc(S(=O)(=O)C3(C(=O)NO)CCOCC3)cc2)CCN1c1ccc(C(F)(F)F)cc1
Your job: order these 3 records by IC50, ascending. // format: requested-order list of labels
I, III, II
(I: 3.5 nM, III: 6.8 nM, II: 34.3 nM)
